- ASSAYED SYSTEM: acetylcholinesterase (Homo sapiens, UniProt P22303)
- Sequence (P22303 32-614): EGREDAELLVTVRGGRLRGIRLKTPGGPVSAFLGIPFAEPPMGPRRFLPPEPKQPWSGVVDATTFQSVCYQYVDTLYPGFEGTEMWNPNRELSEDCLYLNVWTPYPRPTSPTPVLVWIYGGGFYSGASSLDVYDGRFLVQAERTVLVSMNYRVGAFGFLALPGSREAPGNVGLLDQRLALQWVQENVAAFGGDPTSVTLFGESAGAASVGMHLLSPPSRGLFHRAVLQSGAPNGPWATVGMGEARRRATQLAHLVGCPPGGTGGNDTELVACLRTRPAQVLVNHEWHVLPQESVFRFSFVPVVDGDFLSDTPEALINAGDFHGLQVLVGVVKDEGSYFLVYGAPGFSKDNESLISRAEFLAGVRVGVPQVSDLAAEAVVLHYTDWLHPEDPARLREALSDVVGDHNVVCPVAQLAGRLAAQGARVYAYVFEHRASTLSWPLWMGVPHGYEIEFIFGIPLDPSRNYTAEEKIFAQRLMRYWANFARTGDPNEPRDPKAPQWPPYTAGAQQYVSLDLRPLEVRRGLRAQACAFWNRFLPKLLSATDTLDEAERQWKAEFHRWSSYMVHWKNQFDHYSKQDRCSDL
Where a name gives a salt, the structure may show the parent alone.
RECORDED METRIC: IC50 (nM)
The figure you give is taken to be in nM; do not add the unit.

Incoming: Given CN1CC[C@@]23C=C[C@H](O)C[C@@H]2Oc2c(OC(=O)N4CCc5ccccc5C4)ccc(c23)C1 [Example 2, hydrochloride] , state its recorded IC50.
Outgoing: 0.9
